Origin of measurements: patent US20180016324A1

target: T1, ZIKV (prM80E) with a C-terminal myc-myc-hexahistidine tag (Zika virus, UniProt A0A024B7W1 104-694); assay: SPR, mAb captured, 25C
T1 construct: also called ZIKV (prM80E)-mmH; ZIKV-mmH
MEASURED_ATTRIBUTE: koff (s⁻¹)
Field: numeric (s⁻¹). Do not append units.

// koff lookup, key: H4H25703N (antibody, V domains shown) VH: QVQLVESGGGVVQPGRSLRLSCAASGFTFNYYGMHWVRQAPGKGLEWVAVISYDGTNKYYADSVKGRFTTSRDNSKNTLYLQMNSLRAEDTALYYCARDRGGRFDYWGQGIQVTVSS VL: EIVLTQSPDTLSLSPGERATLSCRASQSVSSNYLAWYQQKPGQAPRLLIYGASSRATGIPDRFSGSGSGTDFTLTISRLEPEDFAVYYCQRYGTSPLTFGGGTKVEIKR 0.000307

Would you kindly share the measured koff for H4H25637P (antibody, V domains shown) VH: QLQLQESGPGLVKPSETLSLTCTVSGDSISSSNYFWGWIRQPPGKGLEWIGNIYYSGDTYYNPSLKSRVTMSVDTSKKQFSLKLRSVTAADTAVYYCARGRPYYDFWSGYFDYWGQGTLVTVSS VL: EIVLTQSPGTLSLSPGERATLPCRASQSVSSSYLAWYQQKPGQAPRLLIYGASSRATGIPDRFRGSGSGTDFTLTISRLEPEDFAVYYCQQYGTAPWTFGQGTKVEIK ? 0.00391

// returns reported koff for input H4H25704N (antibody, V domains shown) VH: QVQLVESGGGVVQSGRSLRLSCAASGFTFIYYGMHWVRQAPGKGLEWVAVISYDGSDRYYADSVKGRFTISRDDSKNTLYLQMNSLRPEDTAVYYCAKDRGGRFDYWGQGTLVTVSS VL: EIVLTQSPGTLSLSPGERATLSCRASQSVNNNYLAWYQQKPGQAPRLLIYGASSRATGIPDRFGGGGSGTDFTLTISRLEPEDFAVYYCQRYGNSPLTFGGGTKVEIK 0.000359
